Provenance of the data: patent US4088772A

Please provide measured ED50 for the entries that follow.
experiment: in vivo; conditions: mouse, in vivo, po, Tremors ED50, Table 1, mice

>  <molecule>
CCCCN1CC2c3ccccc3C3CC2(C1)c1ccccc13 (stereo not shown)

>  <ED50>
300 mg/kg

$$$$
>  <molecule>
c1ccc2c(c1)[C@@H]1C[C@@]3(CN(C4CC4)C[C@H]23)c2ccccc21 (relative stereo)

>  <ED50>
> 324 mg/kg

$$$$
>  <molecule>
CN1C(=O)CN=C(c2ccccc2)c2cc(Cl)ccc21 [Diazepam, reference compound]

>  <ED50>
> 324 mg/kg

$$$$

Moving on to the next molecule.
Consider the molecule c1ccc2c(c1)[C@@H]1C[C@@]3(CN(CC4CCC4)C[C@H]23)c2ccccc21 (relative stereo) and give its measured ED50.
> 324 mg/kg
